These entries and their values trace back to patent US10245264B2.

- TARGET OR SYSTEM: sGC α1/β1 heterodimer stably expressed in CHO-K1 cells (CHO-K1/sGC) (Homo sapiens, UniProt Q02108+Q02153)
- Construct: expressed in transfected cells
- Sequence (Q02108 1-690): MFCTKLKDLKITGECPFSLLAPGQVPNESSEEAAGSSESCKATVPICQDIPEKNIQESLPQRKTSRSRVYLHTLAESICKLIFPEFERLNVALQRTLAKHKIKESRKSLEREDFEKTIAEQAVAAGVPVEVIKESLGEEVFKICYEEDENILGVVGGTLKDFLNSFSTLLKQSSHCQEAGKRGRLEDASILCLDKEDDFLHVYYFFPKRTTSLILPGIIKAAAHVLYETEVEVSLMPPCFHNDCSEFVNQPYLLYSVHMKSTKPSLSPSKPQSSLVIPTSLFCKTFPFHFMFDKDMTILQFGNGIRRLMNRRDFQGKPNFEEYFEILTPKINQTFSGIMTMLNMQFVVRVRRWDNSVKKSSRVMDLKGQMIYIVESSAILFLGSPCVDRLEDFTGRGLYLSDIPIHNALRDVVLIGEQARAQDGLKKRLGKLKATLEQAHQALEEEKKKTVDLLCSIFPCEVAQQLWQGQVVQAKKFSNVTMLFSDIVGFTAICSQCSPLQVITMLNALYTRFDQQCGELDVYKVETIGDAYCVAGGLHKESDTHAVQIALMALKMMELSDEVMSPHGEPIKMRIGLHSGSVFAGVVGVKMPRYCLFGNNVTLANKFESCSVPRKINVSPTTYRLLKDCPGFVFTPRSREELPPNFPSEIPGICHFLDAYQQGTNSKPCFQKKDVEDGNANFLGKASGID
- Sequence (Q02153 1-619): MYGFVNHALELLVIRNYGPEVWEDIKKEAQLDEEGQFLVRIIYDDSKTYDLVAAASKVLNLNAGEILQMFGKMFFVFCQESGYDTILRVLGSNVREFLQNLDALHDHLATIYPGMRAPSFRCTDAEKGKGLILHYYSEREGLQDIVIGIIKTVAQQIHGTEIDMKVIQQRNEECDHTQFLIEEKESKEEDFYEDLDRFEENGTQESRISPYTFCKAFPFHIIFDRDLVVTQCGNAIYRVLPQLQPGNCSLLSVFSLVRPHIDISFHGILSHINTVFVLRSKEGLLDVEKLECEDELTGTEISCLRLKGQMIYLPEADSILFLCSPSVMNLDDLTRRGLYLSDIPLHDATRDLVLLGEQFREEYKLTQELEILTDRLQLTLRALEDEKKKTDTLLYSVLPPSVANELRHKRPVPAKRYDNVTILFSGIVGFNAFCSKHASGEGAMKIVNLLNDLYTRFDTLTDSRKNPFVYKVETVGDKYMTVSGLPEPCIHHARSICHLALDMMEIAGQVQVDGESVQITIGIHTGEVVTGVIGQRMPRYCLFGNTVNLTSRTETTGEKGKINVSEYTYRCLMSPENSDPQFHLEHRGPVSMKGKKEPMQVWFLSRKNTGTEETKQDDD
- PROCEDURE DETAILS: Cell-based sGC functional assay (CASA assay), cGMP generation by HTRF
- CONDITION CONTEXT: CHO-K1, maximum cGMP production of Compound A set to 100% activation; read-out: % Act. (percent activation relative to Compound A)
Answer each item with its documented Emax.
Quick note: number first, unit second.

Reported Emax of CC(C)CSc1nc(-c2nc(N)c3c(n2)NC(=O)C3(C)c2ccc(F)cc2)cn2ccnc12 (stereo not shown) [Example 63A] : 93%

Reported Emax of CC(CNc1nc(-c2nc(N)c3c(n2)NC(=O)C3(C)c2ccc(F)cc2)cn2ccnc12)C(F)(F)F (racemic) : 89%

Reported Emax of CC1(c2ccc(F)cc2)C(=O)Nc2nc(-c3cn4ccnc4c(Oc4cccc(F)c4F)n3)nc(N)c21 (stereo not shown) [Example 15A] : 104%

Reported Emax of CC1(c2ccccc2)C(=O)Nc2nc(-c3cn4ccnc4c(Oc4cccc(F)c4)n3)nc(N)c21 (stereo not shown) : 110%

Reported Emax of CC1(c2ccc(F)cc2)C(=O)Nc2nc(-c3cn4cc(C(F)(F)F)nc4c(Oc4cccc(F)c4)n3)nc(N)c21 (stereo not shown) [Example 35A] : 94%

Reported Emax of CC1(c2ccc(F)cc2)C(=O)Nc2nc(-c3cn4cc(C(F)(F)F)nc4c(Oc4ccccc4)n3)nc(N)c21 (stereo not shown) [Example 36A] : 129%

Reported Emax of CC1(c2ccc(F)cc2)C(=O)Nc2nc(-c3cn4ccnc4c(OCCC4CC(F)(F)C4)n3)nc(N)c21 (stereo not shown) [Example 42A] : 119%

Reported Emax of CC1(c2ccc(F)cc2)C(=O)Nc2nc(-c3cn4ccnc4c(Oc4ccc(F)cc4)n3)nc(N)c21 (stereo not shown) [Example 20A] : 109%

Reported Emax of CC1(c2ccc(F)cc2)C(=O)Nc2nc(-c3cn4ccnc4c(Oc4cc(F)ccc4F)n3)nc(N)c21 (stereo not shown) [Example 25A] : 97%

Reported Emax of CC1(c2ccc(Cl)cc2)C(=O)Nc2nc(-c3cn4ccnc4c(Oc4cccnc4)n3)nc(N)c21 (stereo not shown) [Example 30A] : 168%
